B1: TPR t1 (parent)
chain: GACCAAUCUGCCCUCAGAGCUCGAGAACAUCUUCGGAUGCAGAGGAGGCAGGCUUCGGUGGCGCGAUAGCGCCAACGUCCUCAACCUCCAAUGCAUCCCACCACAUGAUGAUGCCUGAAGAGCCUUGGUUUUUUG

- Variants of: B1
- Test Description: polymerase ribozyme fitness, log enrichment relative to wild type (log ratio); higher = more active; in vitro selection for triplet polymerase activity
Below, each of the variants is paired with its reported polymerase ribozyme fitness (log ratio) value.

Use the examples below as a reference point.
| Mutation String | Assay Result |
| --- | --- |
| U9C G19A U96A A121G U132A | -1.11 |
| U9C U14A U21C A43C G117A A119G | -1.44 |

So what's the measured polymerase ribozyme fitness (log ratio) for this one? A18U G52U G61A
-2.78

What do we get for C12U C49A A50C A95C ?
-1.09
